Target: T1, caspase-3 (UniProt P42574 29-277, limits assumed)
T1 sequence (looked up): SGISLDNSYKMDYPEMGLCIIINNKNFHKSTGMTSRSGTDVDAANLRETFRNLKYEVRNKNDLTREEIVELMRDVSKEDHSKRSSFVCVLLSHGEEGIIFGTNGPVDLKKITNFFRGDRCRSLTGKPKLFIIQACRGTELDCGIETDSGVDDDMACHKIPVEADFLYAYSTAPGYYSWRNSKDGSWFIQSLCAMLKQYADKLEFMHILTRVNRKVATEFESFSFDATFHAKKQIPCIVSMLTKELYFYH
Experiment: cell-based or functional assay
Numbered stars: 1 amine (or outer) side, 2 acyl side, 3 side chain; on linkers, the order of the positions; unused ones are H or OH. Square brackets hold non-standard residues; d marks the D form. Ends that are not written are not given here. * marks the point of attachment. AAsp = aza-Asp, O=C(N(CC(=O)[*:3])N[*:1])[*:2]; azaAsp = O=C(N(CC(=O)[*:3])N[*:1])[*:2]; Hydrocinnamoyl = O=C(CCc1ccccc1)*; Cbz = O=C(OCc1ccccc1)*
# note: exactly 700000 M⁻¹ s⁻¹ is not below, so it is Not met; use Met for k2 strictly under it

Please review the entries below; each comes with its answer.
[
  {
    "Binder": "Cbz-DEV[azaAsp]-{(S,S)‑EP‑CONHCH2Ph} [Cbz-Asp-Glu-Val-AAsp-(S,S)-EP-CONHCH2Ph]",
    "Class": "Not met"
  },
  {
    "Binder": "Cbz-DEV[azaAsp]-{(S,S)‑EP‑CO-Phe-NH2} [Cbz-Asp-Glu-Val-AAsp-(S,S)-EP-CO-Phe-NH2]",
    "Class": "Not met"
  },
  {
    "Binder": "Cbz-DEVD (not fully specified (residue 4, C-terminus); printed as Cbz-Asp-Glu-Val-AAsp-(2S, 3S)-EP-COOEt) [Cbz-Asp-Glu-Val-AAsp-(2S, 3S)-EP-COOEt]",
    "Class": "Not met"
  },
  {
    "Binder": "Cbz-Glu-Val-[azaAsp]-{(S,S)‑EP‑CONHCH2CH2Ph} [Cbz-Glu-Val-AAsp-(S,S)-EP-CONHCH2CH2Ph]",
    "Class": "Met"
  }
]

# next binder below
Find out if reported k2 for Hydrocinnamoyl-Val-Ala-[AAsp]-{(S,S)‑EP‑COOEt} [PhPr-Val-Ala-AAsp-(S,S)-EP-COOEt] is less than 700000 M⁻¹ s⁻¹ Met

All figures here come from patent US20040048327A1.
